Source listed as the supplement of paper PMC6757056.

B1: library; a variant is named by its letters at N, in order (parent)
chain: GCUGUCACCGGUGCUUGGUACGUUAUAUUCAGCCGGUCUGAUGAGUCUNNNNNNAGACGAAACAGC

Variants of: B1
Assay: FACS-Seq fitted mean relative fluorescence mCherry/BFP with ligand (log10 relative fluorescence); HEK293T overexpressing SLC46A1; ligand concentration (+) FACS-Seq: 6 mM; higher = higher reporter protein expression
Settings: with (6R,S)-folinic acid; ligand present: yes
Label scheme for FACS-Seq fitted mean (log10): lower than 0.5 is Condition not met, 0.5 and above is Condition met.

* AGACAG | Condition met
* AGAUCA | Condition not met
* CGGUUA | Condition met
* GAAGGC | Condition met
* UUCAAU | Condition met
* GACAGA | Condition not met
* CGGCAU | Condition met
* GCAGCG | Condition not met
* AUAUCC | Condition met
* GAAGUA | Condition not met
* CGAGUU | Condition not met
* CGGGUA | Condition not met
* AUGGUU | Condition not met
* GAGAAC | Condition met
* UGGACC | Condition not met
* CAAUUC | Condition not met
* UCGUAA | Condition not met
* GAUGGU | Condition met
* AUAGAC | Condition met
* UUCUGC | Condition not met
* CGGAUA | Condition not met
* GAGACU | Condition not met
* GUUCAA | Condition met
* CACUGG | Condition met
* AACUGG | Condition met
* GGUGAC | Condition not met
* GUACAG | Condition met
* CGUGGA | Condition met
* UAUACC | Condition not met
* UAGAUG | Condition not met
* GAAGAA | Condition not met
* GAUGAG | Condition met
* CUGUAU | Condition not met
* GGUUGA | Condition not met
* UUAGCA | Condition not met
* AUAUUC | Condition not met
* CUUGGG | Condition not met
* AAUUUG | Condition not met
* ACUUGG | Condition met
* GCUUAA | Condition met
* AUUUUC | Condition met
* CGUCUA | Condition not met
* CAACGA | Condition met
* CCAUGU | Condition not met
* UCCGGG | Condition met
* GAGGAU | Condition not met
* AGUGAU | Condition not met
* UAAUGC | Condition not met
* GGGAGC | Condition not met
* UAGGAC | Condition met
* AGUGGA | Condition not met
* CAUAAA | Condition not met
* UAUAAU | Condition not met
* GAUAGA | Condition met
* GACAAA | Condition not met
* CCACGU | Condition not met
* UUUAUG | Condition not met
* GGCCAA | Condition not met
* UACGGU | Condition not met
* GCUCAC | Condition not met
* UCGACU | Condition met
* CAGACA | Condition met
* UGUUAA | Condition not met
* UGAGCU | Condition not met
* AAUUGG | Condition not met
* GUUAUA | Condition not met
* AAUAGG | Condition not met
* AUAGGG | Condition not met
* UUUGAA | Condition not met
* UUGUUA | Condition met
* UGGAUG | Condition met
